measurement_notes: Antioxidant activity assessed as Fenton system generated hydroxyl radical scavenging activity by ESR spectrometer
Assay type: functional
The entries below are paired with their reported IC50.
Use µM as the unit, but write only the number.

Known results for compounds:
smiles_repr | measured_property | test_value
Oc1cc(O)cc(O)c1 | IC50 | 392
Oc1cc(O)cc(Oc2c(O)cc(O)c3c2Oc2c(O)cc4oc5c(Oc6cc(O)cc(O)c6)c(O)cc(O)c5c4c2O3)c1 | IC50 | 39.2
Oc1cc(O)cc(Oc2c(O)cc(O)c3c2Oc2c(O)cc(O)c(-c4c(O)cc(O)c5c4Oc4c(O)cc(O)c(Oc6cc(O)cc(O)c6)c4O5)c2O3)c1 | IC50 | 29.7
Oc1cc(O)cc(Oc2c(O)cc(O)c3c2Oc2c(O)cc(O)cc2O3)c1 | IC50 | 51.8
Oc1cc(O)c(Oc2cc(O)cc(O)c2Oc2cc(O)cc(O)c2-c2c(O)cc(O)cc2O)c(O)c1 | IC50 | 33.5

Task item: Reported IC50 for Oc1cc(O)cc(Oc2c(O)cc(O)c3c2Oc2c(O)cc(Oc4c(O)cc(O)cc4O)cc2O3)c1 : what is it?
Reply: 39.6

Task item: Cool, now Oc1cc(O)cc(Oc2c(O)cc(O)c3c2Oc2c(O)cc(Oc4c(O)cc(Oc5c(O)cc(O)c6c5Oc5c(O)cc(O)cc5O6)cc4O)cc2O3)c1
Reply: 28.6

###

System: MRC5
measurement_notes: Cytotoxicity against human MRC5 cells at 100 uM after 24 hrs by MTT assay
Type: cell-based
test_context: mrc5, 24 h
measured_property: Activity

Known results for compounds:
compound | target_system | Activity
Oc1cc(O)c(Oc2cc(O)cc(O)c2Oc2cc(O)cc(O)c2-c2c(O)cc(O)cc2O)c(O)c1 [FUCODIPHLOROETHOL G] | MRC5 | Non-toxic
Oc1cc(O)cc(Oc2c(O)cc(O)c3c2Oc2c(O)cc(Oc4c(O)cc(O)cc4O)cc2O3)c1 | MRC5 | Non-toxic
Oc1cc(O)cc(Oc2c(O)cc(O)c3c2Oc2c(O)cc4oc5c(Oc6cc(O)cc(O)c6)c(O)cc(O)c5c4c2O3)c1 [PHLOROFUCOFUROECKOL A] | MRC5 | Non-toxic
Oc1cc(O)cc(O)c1 [PHLOROGLUCINOL] | MRC5 | Non-toxic
Oc1cc(O)cc(Oc2c(O)cc(O)c3c2Oc2c(O)cc(Oc4c(O)cc(Oc5c(O)cc(O)c6c5Oc5c(O)cc(O)cc5O6)cc4O)cc2O3)c1 [DIECKOL] | MRC5 | Non-toxic
Oc1cc(O)cc(Oc2c(O)cc(O)c3c2Oc2c(O)cc(O)c(-c4c(O)cc(O)c5c4Oc4c(O)cc(O)c(Oc6cc(O)cc(O)c6)c4O5)c2O3)c1 | MRC5 | Non-toxic

Kindly consider the entry below.
Task item: Reported Activity for Oc1cc(O)cc(Oc2c(O)cc(O)c3c2Oc2c(O)cc(O)cc2O3)c1 [ECKOL] : what is it?
Reply: Non-toxic
